EXPERIMENTAL SYSTEM: Beta-lactamase (Escherichia coli (strain K12)) (UniProt P00811)
Sequence (P00811 whole entry, looked up): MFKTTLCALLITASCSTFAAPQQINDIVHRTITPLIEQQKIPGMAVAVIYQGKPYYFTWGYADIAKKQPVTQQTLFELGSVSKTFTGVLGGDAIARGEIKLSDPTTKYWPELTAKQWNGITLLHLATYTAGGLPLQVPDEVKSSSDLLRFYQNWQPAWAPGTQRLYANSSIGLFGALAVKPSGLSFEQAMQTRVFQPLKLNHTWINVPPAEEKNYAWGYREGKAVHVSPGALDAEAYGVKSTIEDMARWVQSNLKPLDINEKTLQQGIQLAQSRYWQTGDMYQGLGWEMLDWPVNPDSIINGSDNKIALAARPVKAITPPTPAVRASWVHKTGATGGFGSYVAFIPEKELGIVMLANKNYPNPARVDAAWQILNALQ
PROTOCOL TEXT: qHTS Inhibitors of AmpC Beta-Lactamase (assay with detergent); also: nearly all actives have a fitted effect of over 25% in size
TEST CONTEXT: AmpC hydrolysis of nitrocefin, absorbance 480 nm, 0.01% Triton; series mostly up to 114 µM
Hit rate of the full screen: of about 370,000 compounds, about 150 (0.041%) were called active. About 14% were inconclusive and are not listed. Many of the other results were omitted from the sample, so actives are more common in it than they were.
RESULT TYPE: outcome

Reference set (5 entries):
# outcome (molecule: CCN(CC)S(=O)(=O)c1ccc2c(c1)N(CC(=O)NCC(C)c1ccccc1)C(=O)CO2 (stereo not given) ) is inactive

# outcome (molecule: "O=S(=O)(c1ccc2nc(NCc3ccccc3Cl)ccc2c1)N1CCCCC1" ) is inactive

# outcome (molecule: "Cc1ccc2nc(-c3ccc(C)c(NC(=O)Cc4ccccc4)c3)oc2c1" ) is inactive

# outcome (molecule: "COC(=O)c1c(NC(=O)c2cc(=O)c3c(C)cc(C)cc3o2)sc2c1CCCC2" ) is inactive

# outcome (molecule: O=C(CC(NCc1cccnc1)C(=O)O)Nc1ccc(O)cc1 (stereo not given) ) is inactive

Further cases:
# outcome (molecule: "CCCCN(CC)CCCNC(=O)c1nn(C)c2c1CS(=O)(=O)c1ccccc1-2" ) is inactive
